Molecular target: HLA-DRB1*04:01 (Homo sapiens, UniProt P01903+P01911, A100K/A169T/F76Y/I96L/K127E/L162R/M171V/N62H/P40V/Q125Y/R42H/S133A/S149N/S66Y/V115G/V209L/W38E)
Experiment: Peptide competition binding assay to HLA-DRB1*04:01
Settings: competition with 0.01 μM biotinylated influenza HA306-318
readout-label: binding to HLA-DRB1*04:01

substance | endpoint-result
arg-TNC56: corresponding unmodified arginine-containing peptide of cit-TNC56 (QGQYELRVDLRDHGE) | did not
arg-TNC17: corresponding unmodified arginine-containing peptide of cit-TNC17 (VSLISRRGDMSSNPA) | did not
arg-TNC22: corresponding unmodified arginine-containing peptide of cit-TNC22 (FDRYRLNYSLPTGQW) | bound
arg-TNC45: corresponding unmodified arginine-containing peptide of cit-TNC45 (PDGFRLSWTADEGVF) | bound

Measured values drawn from patent US20240294586A1 for this set.
